# Study System: GluA1o-γ8 (GRIA1o-CACNG8 fusion construct) (Homo sapiens (Human), UniProt P42261+Q8WXS5)
# Sequence (P42261 other isoform, or with tags, fused parts or gaps): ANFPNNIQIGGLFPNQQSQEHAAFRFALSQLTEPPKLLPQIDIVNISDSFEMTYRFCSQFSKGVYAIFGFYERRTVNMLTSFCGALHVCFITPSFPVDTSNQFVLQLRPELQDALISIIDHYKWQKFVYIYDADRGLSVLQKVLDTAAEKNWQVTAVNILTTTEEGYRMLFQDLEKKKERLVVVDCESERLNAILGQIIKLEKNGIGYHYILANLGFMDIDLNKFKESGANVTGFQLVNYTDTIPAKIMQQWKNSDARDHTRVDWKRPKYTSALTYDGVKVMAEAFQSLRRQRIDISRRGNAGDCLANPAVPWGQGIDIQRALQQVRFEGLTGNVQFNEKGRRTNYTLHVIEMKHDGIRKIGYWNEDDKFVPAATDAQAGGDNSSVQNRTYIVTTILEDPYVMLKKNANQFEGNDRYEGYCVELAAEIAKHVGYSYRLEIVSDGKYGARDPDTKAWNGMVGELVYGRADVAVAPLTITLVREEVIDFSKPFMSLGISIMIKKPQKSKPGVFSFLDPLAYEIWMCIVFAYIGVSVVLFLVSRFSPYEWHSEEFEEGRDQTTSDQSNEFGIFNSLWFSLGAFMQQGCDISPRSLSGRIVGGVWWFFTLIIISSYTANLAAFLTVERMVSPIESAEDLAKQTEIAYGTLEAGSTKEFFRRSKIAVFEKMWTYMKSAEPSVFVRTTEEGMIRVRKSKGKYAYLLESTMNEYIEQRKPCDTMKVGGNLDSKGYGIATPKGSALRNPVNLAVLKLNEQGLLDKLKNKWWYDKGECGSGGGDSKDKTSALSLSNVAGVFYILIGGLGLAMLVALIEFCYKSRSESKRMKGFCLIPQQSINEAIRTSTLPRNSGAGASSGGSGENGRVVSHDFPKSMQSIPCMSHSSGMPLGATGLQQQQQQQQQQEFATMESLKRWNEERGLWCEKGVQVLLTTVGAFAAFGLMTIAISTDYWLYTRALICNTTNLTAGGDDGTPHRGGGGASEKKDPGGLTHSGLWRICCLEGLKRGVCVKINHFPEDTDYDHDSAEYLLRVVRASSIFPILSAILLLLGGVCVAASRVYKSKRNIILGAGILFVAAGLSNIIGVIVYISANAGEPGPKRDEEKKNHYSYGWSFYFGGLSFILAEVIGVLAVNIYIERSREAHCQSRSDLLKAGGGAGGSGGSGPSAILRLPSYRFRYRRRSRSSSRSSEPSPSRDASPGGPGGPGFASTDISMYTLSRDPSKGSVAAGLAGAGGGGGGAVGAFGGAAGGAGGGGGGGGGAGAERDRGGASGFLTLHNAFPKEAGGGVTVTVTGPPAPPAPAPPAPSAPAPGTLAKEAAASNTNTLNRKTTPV
# Run Description: Calcium flux assay (FLIPR), inhibition of TARP γ8 dependent AMPA receptor activity
# Test Settings: GluA1o-γ8 (GRIA1o-CACNG8 fusion) in HEK293 cells, calcium flux after 15 μM glutamate
Consider the following compounds and their measured pIC50 readings.
As a rule, pIC50 stands for the negative log10 of the concentration, concentration in M.

Q) Quick one: pIC50 of CC(C)c1cc2ccc(C(F)(F)F)nc2n1-c1cnc2[nH]ccc2c1 [Example 391] ?
A) 9.20

Q) One more compound: Cc1cc(-n2c(C(C)C)cc3cccnc32)cc2cn[nH]c12 [Example 332]
A) 10.40

* * *

# Study System: GluA1o-γ8 (GRIA1o-CACNG8 fusion construct) (Homo sapiens (Human), UniProt P42261+Q8WXS5)
# Run Description: Calcium flux assay (FLIPR), inhibition of TARP γ8 dependent AMPA receptor activity
# Test Settings: GluA1o-γ8 (GRIA1o-CACNG8 fusion) in HEK293 cells, calcium flux after 15 μM glutamate
Quantity Kind: pIC50
pIC50 is defined as minus the log10 of a concentration measured in mol/L.

See these solved cases before continuing.
Molecule: O=c1[nH]c2c(F)cc(-n3c(C(F)(F)F)nc4ccc(C(F)(F)F)nc43)cc2o1
pIC50: 8.60
--
Molecule: O=c1[nH]c2ccc(-n3c(-c4ccccc4)nc4ccc(C(F)F)nc43)cc2s1
pIC50: 10.00
--
Molecule: c1cc2[nH]ncc2cc1-n1c(C2CCC2)nc2ccc(C3CC3)nc21
pIC50: 9.80
--
Molecule: Cc1ccc2nc(C)n(-c3ccc4c(c3)CC(=O)N4)c2n1
pIC50: 5.60
--
Molecule: CC(C)c1cc2cccnc2n1-c1cc(Cl)c2c(c1)CC(=O)N2
pIC50: 10.50

Q) I am curious: what pIC50 value has been reported for "FC(F)(F)c1nc2ccc(Cl)nc2n1-c1ccc2[nH]ncc2c1" ?
A) 8.60

Q) Cool, now CC(F)c1nc2ccc(C(F)(F)F)nc2n1-c1ccc2[nH]ncc2c1 (racemic)
A) 8.30

Q) Another: "O=C1Cc2cc(-n3c(-c4ccc(F)cc4)c(Br)c4ccc(F)nc43)ccc2N1"
A) 8.40

Q) Likewise for "CC(C)c1c(Br)c2ccc(C(F)(F)F)nc2n1-c1cnc2c(c1)CC(=O)N2" ?
A) 7.50

Q) Here is the next molecule: "O=C1Cc2cc(-n3c(-c4ccnc(F)c4)nc4ccc(C(F)(F)F)nc43)ccc2N1"
A) 8.90

Q) Would you kindly repeat that for "C=Cc1cc(-n2c(C(F)(F)F)nc3ccc(C(F)(F)F)nc32)cc2cn[nH]c12" ?
A) 10.40

Q) Try this molecule too: "Cc1ccc2ccn(-c3cc(C)c4c(c3)CC(=O)N4)c2n1"
A) 7.00

Q) Another molecule: "Cc1cc(-n2c(CCC(F)(F)F)nc3ccc(C(F)(F)F)nc32)cc2cn[nH]c12"
A) 8.40

* * *

# Study System: GluA1o-γ8 (GRIA1o-CACNG8 fusion construct) (Homo sapiens (Human), UniProt P42261+Q8WXS5)
# Run Description: Calcium flux assay (FLIPR), inhibition of TARP γ8 dependent AMPA receptor activity
# Test Settings: GluA1o-γ8 (GRIA1o-CACNG8 fusion) in HEK293 cells, calcium flux after 15 μM glutamate
Quantity Kind: log10 of IC50 (log10 of the value in nM)
Values are log10 of IC50 in nM.

Answered cases to consult:
Molecule: FC(F)c1ccc2nc(C3CC3)n(-c3ccc4[nH]ncc4c3)c2n1 [Example 321]
Study System: GluA1o-γ8 (GRIA1o-CACNG8 fusion construct) (Homo sapiens (Human), UniProt P42261+Q8WXS5)
log10 of IC50: 0.00
//
Molecule: O=c1[nH]c2ccc(-n3c(-c4ccccc4)nc4cccnc43)cc2s1 [Example 25]
Study System: GluA1o-γ8 (GRIA1o-CACNG8 fusion construct) (Homo sapiens (Human), UniProt P42261+Q8WXS5)
log10 of IC50: 1.00
//
Molecule: Cc1nc2ccc(C(F)F)nc2n1-c1cc(Cl)c2[nH]ncc2c1 [Example 274]
Study System: GluA1o-γ8 (GRIA1o-CACNG8 fusion construct) (Homo sapiens (Human), UniProt P42261+Q8WXS5)
log10 of IC50: -0.50
//
Molecule: Cc1ccc2ccn(-c3cc(F)c4c(c3)CC(=O)N4)c2n1 [Example 379]
Study System: GluA1o-γ8 (GRIA1o-CACNG8 fusion construct) (Homo sapiens (Human), UniProt P42261+Q8WXS5)
log10 of IC50: 2.00
//
Molecule: Cc1cc(-n2c(C)nc3ccc(C(F)(F)F)nc32)cc2c1NC(=O)C2 [Example 309]
Study System: GluA1o-γ8 (GRIA1o-CACNG8 fusion construct) (Homo sapiens (Human), UniProt P42261+Q8WXS5)
log10 of IC50: -0.20

Q) Return reported log10 of IC50; argument: CC(C)c1nc2ccc(C(F)(F)F)nc2n1-c1ccc2[nH]nc(F)c2c1 [Example 191]
A) 0.60

Q) Then FC(F)(F)c1ccc2nc(C3CCC3)n(-c3cc(Br)c4[nH]ncc4c3)c2n1 [Example 138] ?
A) -1.70

Q) Let us now turn to O=c1[nH]c2c(Br)cc(-n3c(C(F)(F)F)nc4ccc(C(F)(F)F)nc43)cc2o1 [Example 290]
A) -0.70

Q) Note, next up: CC(F)(F)c1nc2ccc(C(F)(F)F)nc2n1-c1cc(Cl)c2[nH]ncc2c1 [Example 267]
A) -1.80

Q) And then Cc1cc(-n2c(C(C)C)nc3ccc(C(F)(F)F)nc32)cc2[nH]ncc12 [Example 311] , what is it?
A) 1.20

Q) Field entry: O=C1Cc2cc(-n3c(-c4ccc(F)cc4)nc4cccnc43)ccc2N1 [Example 23]
A) 1.40

Q) How about this molecule: FC(F)(F)Cc1nc2ccc(C(F)(F)F)nc2n1-c1cc(Cl)c2[nH]ncc2c1 [Example 416]
A) -0.30

Q) What about Cc1cc(-n2c(C3(F)CC3)nc3ccc(C(F)(F)F)nc32)cc2cn[nH]c12 [Example 259] ?
A) -1.10

Q) Same read-out for O=C1Cc2cc(-n3c(C4CNC4)nc4ccc(C(F)(F)F)nc43)ccc2N1 [Example 180] ?
A) 3.30

Q) Check OC1(c2nc3ccc(C(F)(F)F)nc3n2-c2ccc3[nH]ncc3c2)CC1 [Example 115] too.
A) 2.30

Q) Try this molecule next: CCC(F)(F)c1nc2ccc(C(F)(F)F)nc2n1-c1ccc2[nH]ncc2c1 [Example 232]
A) 1.20

Q) And then CS(=O)(=O)Cc1nc2ccc(C(F)(F)F)nc2n1-c1ccc2[nH]ncc2c1 [Example 245] , what is it?
A) 2.50

Q) Likewise for CCC(C)c1nc2ccc(C(F)(F)F)nc2n1-c1ccc2[nH]ncc2c1 (racemic) [Example 102] ?
A) 1.00
